Origin of the recorded values: PubChem BioAssay (NCI)

# Test system: HCT-15 colon
# run.description: NCI tumour cell line growth inhibition, 48 h; in the data active means GI50 below about 0.43 µM; inactive means the rest
Mark one answer only. Choices: T (active), F (inactive)

Some solved cases for reference:
- O=C1c2cccc3cc([N+](=O)[O-])cc(c23)C(=O)N1CCN1CCCC1: T
- C=C1SC(=Nc2ccccc2Cl)N(C(=O)c2sc3ccccc3c2Cl)C1(C)C: F
- O=C1/C=C/[C@@H](O)[C@@H]2C[C@@H](O)C[C@H]2/C=C/CCC[C@H](CO)O1: F
- C/C=C1\C(=O)O[C@@H]2C1C[C@@H]1O[C@H]2[C@H](C)CCC/C(C)=C/CC[C@@]1(C)O (stereo partly specified): F

Q: # fetch the recorded call for CC1(C)CCC2(C(=O)O)CC[C@]3(C)C(=CCC4C5(C)CC[C@H](OC6OC(C(=O)O)C(O)C(OC7OC(CO)C(O)C(O)C7O)C6OC6OC(CO)C(O)C(O)C6O)C(C)(C)C5CCC43C)C2C1 (stereo partly specified) here
A: F

Q: What did the test return for `Cc1cccc2c1O/C(=C\c1ncc([N+](=O)[O-])n1C)C2=O` ?
A: T

Q: Which result was noted for this compound in the test: CCC1CCCCN1C(=S)N/N=C(\C)c1ccccn1 (stereo unspecified)
A: T

Q: Hello, I am checking results. What call was entered for `NCCCn1c2c(c3cc4c(cc3c1=O)OCO4)C(=O)c1ccccc1-2` ?
A: F

Q: Please indicate how the test categorized `CCN(CC)Cc1cc(Nc2ccnc3cc(Cl)ccc23)cc(-c2ccc(Cl)cc2)c1O` .
A: F

Q: Recorded test outcome, item `COc1cc2c(=O)n(CCCn3ccnc3)c3c4cc5c(cc4ccc3c2cc1OC)OCO5`
A: F

Q: Hey, what did the test say about CCC(c1ccc(OC)cc1)C(CC)c1ccc(O)c(CN2CCCC2)c1 (stereo unspecified) ?
A: F
